These data points were gathered from ChEMBL document CHEMBL1123541.

METHOD SUMMARY: Partition coefficient (logP)
Format: physicochemical
CONDITION CONTEXT: octanol/water
Ranges used to classify logP: small value (below 0.7), mid value (0.7 to below 1), large value (1 or more)

COMPOUND: COC1=C(C)C(=O)c2c(c(COC(N)=O)c3n2CC2C3N2C)C1=O (centres undefined)
LABEL: large value
//
COMPOUND: CC1=C(N2CC2C)C(=O)c2c(COC(N)=O)c3n(c2C1=O)CC1NC31 (centres undefined)
LABEL: mid value
//
COMPOUND: C#CCNC1=C(C)C(=O)c2c(c(COC(N)=O)c3n2CC2NC32)C1=O (centres undefined)
LABEL: large value
//
COMPOUND: COC1=C(C)C(=O)c2c(c(COC(N)=O)c3n2CC2NC32)C1=O (centres undefined)
LABEL: mid value
//
COMPOUND: CC1=C(NCc2ccco2)C(=O)c2c(COC(N)=O)c3n(c2C1=O)CC1NC31 (centres undefined)
LABEL: large value
//
COMPOUND: CC1=C(N)C(=O)c2c(COC(N)=O)c3n(c2C1=O)CC1NC31 (centres undefined)
LABEL: small value
//
COMPOUND: CC1=C(N2CC2C)C(=O)c2c(COC(N)=O)c3n(c2C1=O)CC1C3N1C (centres undefined)
LABEL: large value
//
COMPOUND: CC1=C(N2CC2)C(=O)c2c(COC(N)=O)c3n(c2C1=O)CC1NC31 (centres undefined)
LABEL: small value
